// data source = patent US10538497B2

target: IDO1 (Homo sapiens (Human)); test: IDO1 Cellular Assay in Hela Cells Stimulated with IFNγ; assay type: cell-based; conditions: Hela cells stimulated with IFNγ 100 ng/mL; read-out: IDO1 HELA Cell Assay, IC50
pIC50: −log10 of the molar value.
value kind: pIC50

compound	experimental system	pIC50
CC(=O)NCCSc1nonc1/C(=N/O)Nc1ccc(F)c(C)c1	IDO1 (Homo sapiens (Human))	7.32
ON=C(Nc1ccc(F)c(Br)c1)c1nonc1SCCN1CCNCC1	IDO1 (Homo sapiens (Human))	6.39
O=c1c(NCCSc2nonc2/C(=N/O)Nc2ccc(F)c(Br)c2)c(N2CCCCC2)c1=O	IDO1 (Homo sapiens (Human))	6.60
O=C(NCCSc1nonc1C(=NO)Nc1ccc(F)c(Br)c1)NC1CCCC1	IDO1 (Homo sapiens (Human))	6.15
O=C1CC[C@H](CSc2nonc2/C(=N/O)Nc2ccc(F)c(Br)c2)N1	IDO1 (Homo sapiens (Human))	7.12
CC(O)CSc1nonc1/C(=N/O)Nc1ccc(F)c(Br)c1 (stereo not shown)	IDO1 (Homo sapiens (Human))	7.06
O=C(CSc1nonc1/C(=N/O)Nc1ccc(F)c(Br)c1)N1C[C@@H](O)[C@@H](O)C1	IDO1 (Homo sapiens (Human))	6.47
O/N=C(\Nc1ccc(F)c(Br)c1)c1nonc1SC1CCNCC1	IDO1 (Homo sapiens (Human))	6.55

P. ON=C(Nc1ccc(F)c(Br)c1)c1nonc1SCC1CCOCC1
Q. OCCCCSc1nonc1/C(=N/O)Nc1ccc(F)c(Br)c1
query: Consider P and Q . Which of these has its pIC50 at a higher number? Your answer should be the label attached to the chosen record.
result: Q

###

biological target: IDO1 (Homo sapiens (Human), UniProt P14902); assay: IDO1 Cellular Assay in Hela Cells Stimulated with IFNγ; assay type: cell-based; conditions: Hela cells stimulated with IFNγ 100 ng/mL; read-out: IDO1 HELA Cell Assay, IC50
Sequence (P14902 whole entry): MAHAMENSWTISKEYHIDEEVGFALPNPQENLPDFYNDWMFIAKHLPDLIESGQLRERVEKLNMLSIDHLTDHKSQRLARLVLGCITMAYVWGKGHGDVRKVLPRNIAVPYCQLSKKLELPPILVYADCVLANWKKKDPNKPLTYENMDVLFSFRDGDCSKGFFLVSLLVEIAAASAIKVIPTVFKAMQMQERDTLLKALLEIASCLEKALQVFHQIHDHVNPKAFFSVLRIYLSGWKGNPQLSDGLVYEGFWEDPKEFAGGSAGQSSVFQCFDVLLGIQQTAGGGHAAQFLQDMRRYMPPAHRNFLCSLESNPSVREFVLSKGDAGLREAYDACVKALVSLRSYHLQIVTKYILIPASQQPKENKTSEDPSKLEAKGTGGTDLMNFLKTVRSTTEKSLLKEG
pIC50: −log10 of the molar value.
value kind: pIC50

Worked examples follow.
compound	pIC50
C[C@H](O)CNC(=O)CSc1nonc1/C(=N/O)Nc1ccc(F)c(Br)c1 [Example 203]	7.94
COCCNC(=O)CCSc1nonc1/C(=N/O)Nc1ccc(F)c(Br)c1	6.25
CN1C(=O)NC[C@H]1CSc1nonc1/C(=N/O)Nc1ccc(F)c(C#N)c1	6.40

a. CC(C)OC(=O)OCOP(=O)(O)CCSc1nonc1/C(=N/O)Nc1ccc(F)c(Br)c1
b. O/N=C(\Nc1ccc(F)c(Br)c1)c1nonc1SCC1CNC1
query: Smaller pIC50 value? Options are a and b Your answer should be the label attached to the chosen record.
result: a

I. CCOC(=O)CCSc1nonc1/C(=N/O)Nc1ccc(F)c(Br)c1
II. CC(=O)N[C@H](CO)CSc1nonc1/C(=N/O)Nc1ccc(F)c(Br)c1
query: Smaller pIC50 value? Options are I and II Your answer should be the label attached to the chosen record.
result: I

I. O=C(CSc1nonc1/C(=N/O)Nc1ccc(F)c(Br)c1)NC1CC1
II. NCCOc1nonc1/C(=N/O)Nc1ccc(F)c(Br)c1
query: Consider I and II . Which of these has its pIC50 at a higher number? Your answer should be the label attached to the chosen record.
result: I
(I: 7.12, II: 6.22)

I. O=C(CSc1nonc1/C(=N/O)Nc1ccc(F)c(Br)c1)N1CC[C@H](O)[C@@H](O)C1
II. CC(C)OC(=O)[C@H](C)NP(=O)(CCSc1nonc1/C(=N/O)Nc1ccc(F)c(Br)c1)N[C@@H](C)C(=O)OC(C)C
query: Consider I and II . Which of these has its pIC50 at a higher number? Your answer should be the label attached to the chosen record.
result: I
